The origin of these recorded values is patent EP4806898A1.

# system tested: recombinant USP1 protein (Homo sapiens, UniProt O94782, DEL125-138/DEL229-408/DEL608-737)
# Sequence (O94782 with tags, fused parts or gaps DEL125-138/DEL229-408/DEL608-737): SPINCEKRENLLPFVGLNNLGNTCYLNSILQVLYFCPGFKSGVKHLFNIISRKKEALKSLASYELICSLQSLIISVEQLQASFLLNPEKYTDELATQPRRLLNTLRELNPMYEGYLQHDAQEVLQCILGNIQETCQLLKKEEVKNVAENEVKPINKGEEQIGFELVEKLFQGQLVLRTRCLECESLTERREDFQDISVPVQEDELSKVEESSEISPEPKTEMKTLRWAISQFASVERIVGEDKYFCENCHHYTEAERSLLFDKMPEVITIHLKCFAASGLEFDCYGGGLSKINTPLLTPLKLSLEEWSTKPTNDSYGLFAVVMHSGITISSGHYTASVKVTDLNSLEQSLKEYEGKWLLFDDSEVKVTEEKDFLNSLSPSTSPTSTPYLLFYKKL
# test method notes: Binding affinity to recombinant USP1 protein by differential scanning fluorimetry
# recorded conditions: compound 100 µM; 0.03 mg/mL USP1 (Δ1-66, Δ125-138, Δ229-408, Δ608-737); Tm with compound minus Tm with DMSO; read-out: ΔTm (°C)
assay readout: ΔTm at 100 µM

Worked set:
COc1ncnc(C2CC2)c1-c1ncc2cc(C(=O)NCCN3CCN(C)CC3)n(Cc3ccc(-c4nc(C(F)(F)F)cn4C(C)C)cc3)c2n1 [Example 102] | > 5 °C
COc1ncnc(C2CC2)c1-c1ncc2cc(C(=O)N(C)C3CC3)n(Cc3ccc(-c4nc(C(F)(F)F)cn4C(C)C)cc3)c2n1 [Example 76] | > 5 °C

Kindly review the next compound as well.
Sample COc1ncnc(C2CC2)c1-c1ncc2cc(C(=O)N[C@H]3CCN(C)[C@H](C)C3)n(Cc3ccc(-c4nc(C(F)(F)F)cn4C)cc3)c2n1 [Example 201] ; ΔTm at 100 µM observed: > 5 °C
